experiment: protease stability score; higher = more stable; yeast display proteolysis, trypsin and chymotrypsin;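 also: relative to predicted unfolded state with 0 unfolded-like and 1 meaning tenfold more protease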
reported metric: protease stability score
// return a plain number; no unit text

Field request: protease stability score | item: DEHDERQHKIHRRFFEAYMTGNEDEMLQLADPNVRLHIGDKDLIGRELFSTWVRELHDRFPGMRIHIEDEDIQGEKSHHRVRIHVDGVTRNVRINQDWYNGRLREMSIDIR
0.353

Give its protease stability score value. Item: SEEEHLLREILERIIHIYSTGDEQILKHLMDPHVKITVEVNGRRIIFHGMEQYIQWYRDLGFDHSKVKLRDHRIIGDKAHAVTELEIHFDGKRREEETREVIVVIDGRLTTWHTSVN
0.898

What value of measured protease stability score is listed for DETEDEMHKVLKLWIEAYRTGDEELLEELFDPHVRLDINGKDFHGREAFTRQVRHEMKHLRYEDFHIDTVEVQGEKAFVHGRIVGKFDGRRRHMHSHLIILKINGRWHVESLHFK ?
1.26

* * *

List of protease stability score values.
assay: protease stability score; higher = more stable; yeast display proteolysis, trypsin and chymotrypsin;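 also: relative to predicted unfolded state with 0 unfolded-like and 1 meaning tenfold more protease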
Could you keep your reply to the number by itself?

Example cases with answers are listed next.
1) HDDQKESHEWAKLFEDWLQTGDEESILKQLDPHVRIEIGDKRNHGREELHRYEHEFWTKFGIDHIHIDDIRVQGEKVHLETTVIVNGRKFQQIIIVVFIDGVMQRLVIEDR
0.798
2) SEEKEMVLHLAELLIELEFTGNWEKLFELADPNVLSRINGRELHGMEKHRKHWEEIRIHRVHIEKVHIETIGDKAKLDIHGRLDGEVNGVRDISESVIHIVSRKYDGRWIVKSIEIRVH
1.22
3) DEHEETIKRLAEIMEKWWFTGDEDALRLLLDPHVRIHLHQGDFNLDLIGMEHLRRLIHELIRKLGIDHSILKDRDIQGDKVTIHMELRIGDKTVTSHITMVMINGRLESFKIHFK
1.32
4) SEYEEFLKEALRILIDDILTGDWRLVYKLFDPETRLNVNGQEIHGRDDVVHHLTHIAREWRMDVKVKEYNVFDGQIHMFGHLQLEFDGREYRRRVELIIIKFNGQWHLRQVVKH
1.58
5) DEDTEKLKKSLEVIWRLLHTGDENSLEHLMDPNARLDINGVTQVGRTASKIIIDRFDHIRHIHINDVRFIDGRAHVHGKTDGIQGDKRYEVSMEIILLKINGRWIIHQFYTE
1.38
6) SEEEEHLDHALKNIIDLIRTGDENLQRELFDPRVRLVVGDKEFHGWETVVHRLREMRFKDFHVRRERIVGDKVHIDVEVNGNVDGRDDVMRMEIRIDKVNGQWRTKNVILN
2.05
7) DEDTKKAEEVLRMFDEAFRTGDEDILRELMDPNVRYVINGREFHGREEVTNAMRELHHRFDHFKSTHIKDHKIQGDKMDVHSTLTYHVNGKDIHVDSREVWVKVNGKWHLRKIIIH
2.24
8) DHVEKEARKFEKLLRHAETTGDEELYLKMIDPNVRIIIGEKNLVGREEVEKWLQTLGVSKVEIRHVEEKDIEIDEDHIRIHGRIIGRYNGKERDFEKHIIVQKIDGKWVLHTEEIR
0.385
9) DHHEELVERIAREWIHAWKTGDEKRLRELMDPHVRMNFNGQELHGRELVTNFLHEFLERFDHQEHHIKRFTVVNGVMHIDGELDLNFDGRRYRHRVHIHIFVFDGRVKHVEIEIR
2.29
10) SEHEEEARKASQESLHDLKTGDEDSFERLLDPNTRVIVLFDGREIIHVGREEVTRFISEWLKRYKGMRIEMQDVRVIDGRIDIHLKTDVDGKDHRLDIHSEKINGQWFLKSIFVDVH
1.95

// lookup protease stability score for SEEEEEFRERLRILYEKLLTGDWRFFLKLADPNVRSIIDGRTWIGRDEFETAMRKFDEDLGFDHTHIRHYHIQGEKVQIHFEVRQGDKRITVEINLVIVNGRYKFVELRLSIH
1.4

Which protease stability score is listed for NEMDEHARHFAELFLRLMRTGDEETTEKLADPHVKVVIGDFEFHGWKMLSIFLREIRIHDIRLEDHRTQGNKSIIHGRTDGEINGQRYETELYIELHLVNGRLKSMRFEWR ?
0.698
